# assayed_system: Ba/F3 cells containing Ros1 G2032R (Homo sapiens, UniProt P08922, G2032R, cells depend on it, form not given)
# Sequence (P08922 whole entry G2032R, form open): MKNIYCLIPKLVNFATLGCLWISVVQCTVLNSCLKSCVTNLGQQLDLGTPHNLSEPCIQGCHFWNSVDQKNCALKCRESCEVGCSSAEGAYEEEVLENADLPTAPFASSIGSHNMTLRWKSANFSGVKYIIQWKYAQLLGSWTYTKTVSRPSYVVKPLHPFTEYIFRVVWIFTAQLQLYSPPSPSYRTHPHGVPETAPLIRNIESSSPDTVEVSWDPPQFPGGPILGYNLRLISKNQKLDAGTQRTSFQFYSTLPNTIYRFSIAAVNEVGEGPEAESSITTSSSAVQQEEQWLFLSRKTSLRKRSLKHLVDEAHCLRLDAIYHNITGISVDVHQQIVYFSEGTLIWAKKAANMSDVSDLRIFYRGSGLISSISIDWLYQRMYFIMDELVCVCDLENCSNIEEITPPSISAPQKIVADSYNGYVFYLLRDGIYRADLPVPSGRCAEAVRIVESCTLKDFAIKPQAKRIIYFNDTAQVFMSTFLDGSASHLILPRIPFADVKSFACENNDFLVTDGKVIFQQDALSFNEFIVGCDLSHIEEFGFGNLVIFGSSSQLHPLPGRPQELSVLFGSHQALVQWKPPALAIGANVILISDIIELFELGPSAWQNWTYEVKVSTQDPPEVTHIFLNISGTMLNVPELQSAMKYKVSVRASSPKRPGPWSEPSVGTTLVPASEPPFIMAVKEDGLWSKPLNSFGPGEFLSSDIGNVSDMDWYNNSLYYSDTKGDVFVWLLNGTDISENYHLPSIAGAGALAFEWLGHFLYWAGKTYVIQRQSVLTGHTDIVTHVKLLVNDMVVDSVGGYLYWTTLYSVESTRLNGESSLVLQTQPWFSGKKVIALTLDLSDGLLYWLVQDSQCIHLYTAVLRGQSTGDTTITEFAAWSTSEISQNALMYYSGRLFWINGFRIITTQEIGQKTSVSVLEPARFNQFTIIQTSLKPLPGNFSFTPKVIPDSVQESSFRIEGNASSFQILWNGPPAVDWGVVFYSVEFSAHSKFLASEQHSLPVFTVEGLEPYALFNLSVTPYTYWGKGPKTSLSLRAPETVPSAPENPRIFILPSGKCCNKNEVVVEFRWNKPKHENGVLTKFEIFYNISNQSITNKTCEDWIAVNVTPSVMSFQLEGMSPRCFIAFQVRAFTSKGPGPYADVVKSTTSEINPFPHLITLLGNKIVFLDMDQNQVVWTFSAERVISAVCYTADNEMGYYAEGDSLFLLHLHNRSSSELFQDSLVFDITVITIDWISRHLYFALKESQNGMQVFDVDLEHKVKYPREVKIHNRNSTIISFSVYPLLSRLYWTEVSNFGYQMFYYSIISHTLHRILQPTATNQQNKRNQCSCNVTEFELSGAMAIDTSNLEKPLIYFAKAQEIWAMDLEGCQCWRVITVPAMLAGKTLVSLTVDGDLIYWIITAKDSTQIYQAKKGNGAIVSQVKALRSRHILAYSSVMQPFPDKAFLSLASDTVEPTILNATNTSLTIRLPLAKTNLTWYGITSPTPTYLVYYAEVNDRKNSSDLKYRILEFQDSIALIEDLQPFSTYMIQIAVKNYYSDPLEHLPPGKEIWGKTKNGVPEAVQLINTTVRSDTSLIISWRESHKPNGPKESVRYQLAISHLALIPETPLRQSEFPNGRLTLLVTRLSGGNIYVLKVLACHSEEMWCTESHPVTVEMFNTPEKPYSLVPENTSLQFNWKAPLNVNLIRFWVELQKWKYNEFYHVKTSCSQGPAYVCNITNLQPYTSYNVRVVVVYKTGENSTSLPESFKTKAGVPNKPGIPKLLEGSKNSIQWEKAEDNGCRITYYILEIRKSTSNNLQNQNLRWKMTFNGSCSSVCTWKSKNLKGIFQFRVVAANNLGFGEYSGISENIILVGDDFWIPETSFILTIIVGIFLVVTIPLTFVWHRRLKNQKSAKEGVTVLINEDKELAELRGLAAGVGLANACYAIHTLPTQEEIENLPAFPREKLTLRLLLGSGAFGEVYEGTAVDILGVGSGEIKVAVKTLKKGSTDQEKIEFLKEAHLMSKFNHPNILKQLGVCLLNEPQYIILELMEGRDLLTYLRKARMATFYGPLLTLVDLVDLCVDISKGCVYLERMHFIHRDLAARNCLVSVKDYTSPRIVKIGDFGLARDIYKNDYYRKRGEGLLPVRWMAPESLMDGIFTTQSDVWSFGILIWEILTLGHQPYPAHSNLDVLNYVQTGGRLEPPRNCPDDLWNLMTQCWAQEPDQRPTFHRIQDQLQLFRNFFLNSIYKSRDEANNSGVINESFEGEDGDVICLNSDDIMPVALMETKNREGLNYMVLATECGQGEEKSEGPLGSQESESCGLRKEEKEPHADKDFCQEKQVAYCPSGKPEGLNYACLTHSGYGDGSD
# experiment_description: Ba/F3-Ros1 cell proliferation assay, G2032R mutant
# Type: cell-based, murine
# condition_label: -log IC50 (M), no IL-3
reported_metric: Ba/3 Ros1 G2032R (-IL-3) pIC50

• c1cc(-c2nn3c(c2-c2ccc(OCc4ccc(C5CC5)cc4)cc2)NCC3)ccn1 = 6.2
• CC(C)c1ccc(COc2ccc(-c3c(-c4ccncc4)nn4c3NCC4)c(F)c2)cc1 = 6.7
• CC(C)c1ccc(COc2ccc(-c3c(-c4ccncc4)nn4c3NCC4)cc2)cc1 = 6.4
• CC(C)c1ccc(COc2ccc(-c3c(-c4ccncc4)nn4c3N(CCO)CC4)cc2)cc1 = 6.4
